- System: KM12 (colon cancer)
- experiment_description: NCI-60 SRB cytotoxicity screen
- Assay type: cell-based
- experimental_setup: Homo sapiens; KM12, single dose 10 μM; read-out: growth inhibition (GI%)
I'd be grateful if you could share measured inhibition at 10 µM for these entries.

Provide value of inhibition at 10 µM for this record tested with KM12 (colon cancer): CCc1cccc2cc(-c3cc(-c4ccc(F)cc4)[nH]c(=S)c3C#N)c(Cl)nc12
< 10%

Item: CCc1cccc2cc(C3C=C(c4ccc(OC)c(OC)c4)NC(=S)N3)c(Cl)nc12 (stereo not shown)
< 10%

// same read-out, input: CCc1cccc2cc(-c3cc(-c4ccc(OC)c(OC)c4)[nH]c(=S)c3C#N)c(Cl)nc12
19.9%

Repeat for the following compound: CCc1cccc2cc(-c3cc(-c4ccc(Br)cc4)[nH]c(=S)c3C#N)c(Cl)nc12
< 10%

Entry source: paper PMC11240139
